study_target: Torsin-1A-interacting protein 1 (Homo sapiens)
method_notes: compound microarray binding of lysate hLAP1 – cell lysate, small-molecule microarray, COS7 lysate, 635/667 nm fluorescence, primary screen (AID 1116)
experimental_context: 635 nm fluorescence, higher = more signal
quantity_name: composite z-score
Please give the numeric answer without any surrounding text.

Completed entries (count: 6):
C[N+](C)(C)CCCC[C@@H]1NC(=O)[C@@H]2C[C@H](C(=O)NCCCCCCNC(=O)CS)[C@H](c3cccc(OCCO)c3)N2C1=O : 0.567
[N-]=[N+]=NCc1ccccc1C[C@]1(C(N)=O)N=C(c2ccc(OCCCO)cc2)O[C@H]1c1ccccc1N=[N+]=[N-] : 1.71
COCCOC(=O)N1C(=O)[C@@]2(c3cc(C#CC4(O)CCCCCC4)ccc31)[C@H](c1ccc(O)cc1)N1[C@H](c3ccccc3)[C@H](c3ccccc3)OC(=O)[C@H]1[C@@H]2C(=O)N1CCc2cc(OC)c(OC)cc2C1 : 0.282
O=C1c2ccccc2[C@@]2(Cc3ccccc3N(Cc3ccccc3)C2=O)[C@H](c2ccc(CO)cc2)N1Cc1ccccc1C(F)(F)F : 0.0154
COC(=O)C(CC#Cc1ccc2c(c1)[C@]1(C(=O)N2)[C@H](C(=O)N2CCCCCCC2)[C@H]2C(=O)O[C@H](c3ccccc3)[C@H](c3ccccc3)N2[C@@H]1c1ccccc1OCCO)C(=O)OC : 6.01
CC(C)N1C(=O)c2ccccc2[C@](C)(C(=O)NC2CC2)[C@@H]1c1ccc(CO)cc1 : 0.507

Form: molecule = `COC(=O)[C@@]1(Cc2ccccc2)[C@H]2c3cc(C(=O)N(C)C)n(Cc4cc(F)c(F)c(F)c4)c3C[C@H]2CN1C(=O)c1ccccc1` ; composite z-score = 0.845

The molecule listed as `COc1ccc([Si](C)(C)[C@@H]2[C@@H](CCO)O[C@]3(C(=O)N(Cc4ccccc4)c4ccc(N(C=O)c5ccccc5)cc43)[C@H]2C)cc1` shows composite z-score equal to 0.301

Reported composite z-score of CCOC(=O)N1C(c2ccc(OCCCO)cc2)=NC(C(=O)OC)N1C(=O)OCC (configuration not stated) : 0.935

The recorded composite z-score for `C=C(CCCC)C(=O)CC[C@@H](OC(=O)c1ccccc1-c1ccccc1C(=O)O)c1ccc(CO)o1` is 1.23

Short answer for `COC(=O)[C@@]1(Cc2ccc(F)cc2)[C@H]2c3cc(C(=O)N(C)C)n(CCc4c[nH]c5ccc(OC)cc45)c3C[C@H]2CN1C(=O)c1ccccc1` : composite z-score was 2.15

What the record says about `CC(=O)NCCCC[C@@H]1NC(=O)[C@@H]2C[C@H](C(=O)NCc3ccc(F)cc3)[C@H](c3ccc(O)cc3)N2C1=O` : composite z-score is 0.362

The reported composite z-score of the molecule `O=C1O[C@@H](c2ccccc2)[C@@H](c2ccccc2)N2[C@@H](c3ccccc3OCCO)[C@]3(C(=O)Nc4ccc(C#CC5(O)CCCCCC5)cc43)[C@@H](C(=O)NC[C@H](O)c3ccccc3)[C@H]12` was 0.0197

composite z-score for `COc1ccccc1CN1C(=O)c2ccccc2[C@](Cc2ccccc2I)(C(=O)NCc2ccccc2)[C@@H]1c1ccc(CO)cc1` is -0.0999

The recorded composite z-score for entry `COc1ccc(C(=O)Nc2cccc(CN3C(=O)[C@@]4(O[C@@H](CCn5cc([C@H](O)c6ccccc6)nn5)[C@H]([Si](C)(C)c5ccc(OC)cc5)[C@H]4C)c4ccccc43)c2)cc1` equals 0.485

response.value for `O=C1C[C@@](C(=O)O)(c2ccc([N+](=O)[O-])cc2)[C@@H](c2ccc(CO)cc2I)N1C1CCCCC1` (field: composite z-score) = -0.126

Memo: CCN(CC)c1ccc(N2CC=CC34O[C@@H]5/C=C\CCCOC(=O)C5[C@H]3C(=O)N(CCCO)[C@@H]4C2=O)cc1 (some centres not stated) , reported composite z-score: 2.44

Entry `COC(=O)[C@@]1(Cc2ccc(OC)cc2)[C@H]2c3cc(C(=O)N4CCCC4)n(CCc4ccccn4)c3C[C@H]2CN1C(=O)c1ccccc1` , composite z-score reported as 0.432

For this molecule ( `CN(C)CCCN1C(=O)[C@@]2(c3ccc([N+](=O)[O-])cc3)CC(=O)N(C3CCCCC3)[C@@H]2c2ccc(CO)cc21` ), measured composite z-score is -1.4

Looking up `[N-]=[N+]=NCc1ccccc1C[C@@]1(C(=O)NCc2ccccc2)N=C(c2ccc(OCCCO)cc2)O[C@@H]1c1ccccc1CN=[N+]=[N-]` , I found its composite z-score recorded as 2.59
